Numbers sourced from patent US20250101133A1.

Molecular target: T1, recombinant human NEDP1 protein (human, UniProt Q96LD8 1-212)
T1 chain: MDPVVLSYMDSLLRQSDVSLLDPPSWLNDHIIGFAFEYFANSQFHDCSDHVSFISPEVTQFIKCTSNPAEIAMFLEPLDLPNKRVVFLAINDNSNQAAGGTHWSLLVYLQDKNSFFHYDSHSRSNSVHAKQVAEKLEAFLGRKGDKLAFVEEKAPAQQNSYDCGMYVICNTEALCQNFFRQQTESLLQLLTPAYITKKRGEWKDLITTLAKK
Assay: SPR
pKd: −log10 of the molar value.
Each entry below lists one item and its recorded pKd value.
valueType: pKd

| binder | ltGtEq | reportedValue |
| --- | --- | --- |
| AbR2DP35, purified His6-tagged nanobody (VHH) VHH: QVQLQESGGGLVQPGGSLTLSCAASGVMFSTGVMGWYRQAPGKQREAVAAITSGGLTTYKDSVKGRFAISRDNTKSTGYLQMNRLRPEDTAVYYCNVRGYWGQGTQVTVSS | > | 11.00 |
| AbR2DP12, purified His6-tagged nanobody (VHH) VHH: QVQLQESGGGLVQAGGSLRLSCAASGSTSSFNVMAWYHQAPGKQRESVASITSGGITVYRDSVKGRFAISSDNAKNTVFLQMNSLKPEDTGVYYCGGVVDGRVYRGQGTQVTVSS | > | 11.00 |
| AbR2DP47, purified His6-tagged nanobody (VHH) VHH: QVQLQESGGGLVEPGGSLRLSCAASGSISSINVMAWYRQAPGKQRESVAAISSFGITTYSETVKGRFTASRDNAKNTMYLQMNNLKPEDTAVYYCKGPNTDWGQGTQVTVSS | = | 8.27 |
| AbR2DP46, purified His6-tagged nanobody (VHH) VHH: QVQLQESGGGLVQAGGSLRLSCAASGSPFSIGTMAWYRQAPGNQRASVAAITRGGATTYANSVKGRFTVSRDNAKNTVYLQMNSLKPEDTAAYYCSVWAGDRAYWGQGTQVTVSS | = | 8.16 |
